Tested on: M14 melanoma
experimentalDetails: NCI-60 one-dose screen, 48 h
conditionParameters: 10 µM unless noted
The panel holds about 83,000 compounds, 20% with a hit somewhere; the sample as a whole holds those more often. Activity calls are given as the source filed them. The calls were made as follows: active = growth percent below 10; inactive = the rest.
Outcome codes: active, inactive

compound	groupLabel
CCOP(=O)(NC[C@H]1O[C@](O)(CO)[C@@H](O)[C@@H]1O)OCC	inactive
Cc1ccccc1NC(=NCCCN1CC1)Nc1ccccc1C	inactive
Clc1ccc(COC(Cn2ccnc2)c2ccc(Cl)cc2Cl)cc1 (stereo not given)	inactive
O=C(Nc1ccc([As]=[As]c2ccc(NC(=O)c3ccccc3)cc2)cc1)c1ccccc1 (stereo not given)	active
C=CCCCCCCCCC(=O)[O-].C=CCCCCCCCCC(=O)[O-].[Zn+2]	inactive
COC(=O)[C@@H](C)C[C@H](Cc1ccc(F)cc1)NC(=O)c1csc([C@@H](C[C@H](C(C)C)N(C)C(=O)[C@@H](NC(=O)[C@H]2CCCCN2C)C(C)C)OC(C)=O)n1	active
Nc1ccc(OCCNS(=O)(=O)c2cccc(S(=O)(=O)F)c2)c(Cl)c1	inactive
C=CCn1cc(C=C2C(=O)N(C)C(=O)N(C)C2=O)c2ccccc21	inactive
CCCC(C)C1(CC)C(=O)NC(=O)N(C)C1=O (stereo not given)	inactive
CC(=O)OC1C(OC/C2=C/C3[C@@H](C(C)C)CC=C(C)[C@@H]3CC(OC(=O)/C=C/c3cn(C)cn3)[C@]3(C)C=C[C@@]2(O)O3)OCC(O)C1O (stereo not given in full)	active

---

Measured growth, listed per entry for reference.
System: PC-3 prostate
experimentalDetails: NCI-60 one-dose screen, 48 h (100 = growth as untreated, 0 = no growth, -100 = all killed)
conditionParameters: 10 µM unless noted
About 83,000 compounds went through this panel and 20% of them were active in at least one assay; those are over-represented in the sample as a whole.

chemicalStructure	growth [%]
CC(=O)O[C@H]1CC[C@]2(C)[C@H]3CC[C@]4(C)[C@@H](OC(C)=O)CC[C@H]4[C@@H]3[C@@H](C)[C@]2(O)C1	89.6
CC[C@H](C)[C@H](NC(=O)c1ccccn1)C(=O)N(C)[C@H](C[C@@H](OC(C)=O)c1nc(C(=O)N[C@@H](Cc2ccccc2)C[C@H](C)C(=O)OC)cs1)C(C)C	24.5
Nc1ccc(-c2nc3cc(F)ccc3[se]2)cc1F	74.3
Cc1ccccc1NC(=NCCCN1CC1)Nc1ccccc1C	74.4
CCOC(=O)[C@@H](C)C[C@H](Cc1ccccc1)NC(=O)c1csc([C@@H](C[C@H](C(C)C)N(C)C(=O)[C@@H](NC(=O)[C@H]2C[C@H](O)CCN2C)C(C)C)OC(C)=O)n1	24.5
Cc1cc(C)cc(Nc2nc3c(s2)CC[C@@]2(C)C3=CC[C@@H]3[C@@H]2CC[C@]2(C)C(=O)CC[C@@H]32)c1	33.1
CC[C@H](C)[C@H](NC(=O)[C@H]1CCCCN1C)C(=O)N(C)[C@H](CC(=O)c1nc(C(=O)N[C@@H](Cc2ccccc2)C[C@H](C)C(=O)O)cs1)C(C)C	78.3
O=[N+]([O-])c1c(Br)sc(Br)c1[N+](=O)[O-]	67.5

---

Test system: HCT-116 colon
experimentalDetails: NCI-60 one-dose screen, 48 h
conditionParameters: 10 µM unless noted
Compounds without any hit were thinned out: in the full panel of roughly 83,000, 20% have a hit. The source made the active and inactive calls. The calls were made as follows: active = growth percent below 10; inactive = the rest.
Outcomes: 1 (yes) for active, 0 (no) for inactive

compound	groupLabel
CNCc1cccnc1	0 (no)
NC(CCl)CCl	0 (no)
CN(C)C(=O)Oc1ccccc1-c1ccccc1	0 (no)
CC1CCCC(C[N+](C)(C)C)C1=O (stereo not given)	0 (no)
COc1ccc(/C=C\c2cc(OC)c(OC)c(OC)c2)cc1OCC(=O)Nc1nc2ccc(C(F)(F)F)cc2s1	0 (no)
O=[N+]([O-])c1c(Br)sc(Br)c1[N+](=O)[O-]	1 (yes)
O=C(Nc1ccc([N+](=O)[O-])cc1)C(Cl)(Cl)Cl	0 (no)
COC(=O)[C@@H](C)C[C@H](Cc1ccccc1)NC(=O)c1csc([C@@H](C[C@H](C(C)C)N(C)C(=O)[C@@H](NC(=O)[C@H]2CCCCN2C)C(C)C)OC(C)=O)n1	1 (yes)
NC1CC2CCCCC2CC1(O)c1ccccc1 (stereo not given)	0 (no)
COC(=O)[C@@H](C)C[C@H](Cc1ccccc1)NC(=O)c1csc([C@@H](C[C@H](C(C)C)N(C)C(=O)[C@@H](NC(=O)[C@H]2CCCCN2C)c2ccc(F)cc2)OC(C)=O)n1	1 (yes)
